Test system: Human alphaherpesvirus 3
Assay: Antiviral activity against TK- VZV 07/1 in HEL cells assessed as reduction of virus plaque formation
Format: functional, organism-based
Conditions: Human alphaherpesvirus 3, 07/1, HEL
Reported Metric: EC50

The molecule identified as COc1cccc(-c2cc(C)c3ncc(CSCCc4ccccc4)n3c2)c1 registered its EC50 at > 4 µg/mL

Looking up Cc1cc(-c2ccccc2)cn2c(CSCCc3ccccc3)cnc12 , I see its EC50 listed as > 4 µg/mL

Measured EC50, Cc1cc(-c2ccc(O)cc2)cn2c(CSCCc3ccccc3)cnc12 : > 100 µg/mL

Looking up Cc1cc(-c2ccccc2O)cn2c(CSCCc3ccccc3)cnc12 , I found its EC50 recorded as > 20 µg/mL

// recorded EC50 for Cc1cc(-c2ccccc2)c2ncc(CSCCc3ccccc3)n2c1 : > 4 µg/mL

====

Test: Cytotoxicity against HEL cells assessed as reduction of cell growth after 3 days
Format: cell-based
Details: human
// reported CC50 at 72 h per item

- Smiles Entry: "Nc1ccn(C[C@@H](CO)OCP(=O)(O)O)c(=O)n1.O.O"
  Observed Value: "47 µg/mL"

The reported value for Cc1cc(I)c2ncc(CSCCc3ccccc3)n2c1 in terms of CC50 at 72 h is > 50 µg/mL

CC50 at 72 h reported for this molecule Cc1cc(-c2ccsc2)c2ncc(CSCCc3ccccc3)n2c1 : > 50 µg/mL

====

Reported EC50 values for the following compounds.
System: Human alphaherpesvirus 3
Experiment: Antiviral activity against TK- VZV 07/1 in HEL cells assessed as reduction of virus plaque formation
Format: functional, organism-based
Conditions: Human alphaherpesvirus 3, 07/1, HEL

Here is how some compounds turned out for EC50.
- Compound: "Cc1cc(-c2cccs2)cn2c(CSCCc3ccccc3)cnc12"
  EC50: "> 4 µg/mL"
- Compound: "c1ccc(CCSCc2cnc3ccc(-c4ccccc4)cn23)cc1"
  EC50: "> 0.8 µg/mL"
- Compound: "COc1ccc(-c2cc(C)c3ncc(CSCCc4ccccc4)n3c2)cc1"
  EC50: "> 4 µg/mL"
- Compound: "Cc1cc(-c2cccc(F)c2)c2ncc(CSCCc3ccccc3)n2c1"
  EC50: "> 4 µg/mL"
- Compound: "Cc1cc(-c2cccs2)c2ncc(CSCCc3ccccc3)n2c1"
  EC50: "4 µg/mL"

Memo: Cc1cc(-c2cccc(O)c2)c2ncc(CSCCc3ccccc3)n2c1 , reported EC50: 2.9 µg/mL

The reported EC50 of the compound Cc1cc(-c2cccc([N+](=O)[O-])c2)c2ncc(CSCCc3ccccc3)n2c1 was > 20 µg/mL

O=c1[nH]c(=O)n([C@H]2C[C@H](O)[C@@H](CO)O2)cc1/C=C/Br [BRIVUDINE] yielded EC50 of 362 µg/mL
